Values compiled from patent US11427558B1.

Target: Recombinant wild type LRRK2 protein (Homo sapiens (Human))
Test: LRRK2 kinase activity, LanthaScreen TR-FRET assay (wild type)
Settings: LRRKtide 400 nM, 25 μM ATP, 60 min; read-out: LRRK2 WT IC50
Quick reference for IC50 among some molecules
test readout: IC50

molecule="N#Cc1cnc(C(=O)Nc2ccc3[nH]nc(-c4ccoc4)c3c2)cc1Cl [Example 66]" value="100 to 1000 nM"
molecule="Cc1cc(C#N)cnc1C(=O)Nc1ccc2[nH]nc(-c3ccnc(N4C[C@H](C)O[C@@H](C)C4)c3)c2c1 [Example 115]" value="< 100 nM"
molecule="Cc1c(C#N)cnc(C(=O)Nc2ccc3[nH]nc(Br)c3c2)c1C [Example 300]" value="100 to 1000 nM"
molecule="COc1nc(C(=O)Nc2ccc3[nH]nc(Cl)c3c2)c(C)c(C)c1C#N [Example 321]" value="100 to 1000 nM"
molecule="Cc1cc(C#N)cc(C)c1C(=O)Nc1ccc2[nH]nc(-c3ccoc3)c2c1 [Example 10]" value="< 100 nM"
molecule="N#Cc1cnc(C(=O)Nc2ccc3[nH]nc(-c4ccoc4)c3c2)c2sccc12 [Example 116]" value="1000 to 10000 nM"
molecule="Cc1c(C#N)cnc(C(=O)Nc2cc3c(-c4cnco4)n[nH]c3cn2)c1C [Example 238]" value="100 to 1000 nM"
molecule="Cc1ncc(-c2n[nH]c3ccc(NC(=O)c4ncc(C#N)cc4C)cc23)s1 [Example 140]" value="< 100 nM"
molecule="Cc1c(C(=O)Nc2ccc3[nH]nc(-c4ccoc4)c3c2)c(C#N)nn1C [Example 90]" value="< 100 nM"
molecule="N#Cc1ccnc(C(=O)Nc2ccc3[nH]nc(-c4ccncc4)c3c2)c1 [Example 23]" value="100 to 1000 nM"
molecule="Cc1n[nH]c2ccc(NC(=O)c3cccc(C#N)c3C(C)C)cc12 [Example 295]" value="100 to 1000 nM"
molecule="N#Cc1ccc(F)c(C(=O)Nc2ccc3[nH]nc(-c4ccoc4)c3c2)c1 [Example 122]" value="< 100 nM"

====

Readings of pIC50 for the listed compounds
Biological target: Recombinant wild type LRRK2 protein (Homo sapiens (Human), UniProt Q5S007)
Sequence (Q5S007 whole entry): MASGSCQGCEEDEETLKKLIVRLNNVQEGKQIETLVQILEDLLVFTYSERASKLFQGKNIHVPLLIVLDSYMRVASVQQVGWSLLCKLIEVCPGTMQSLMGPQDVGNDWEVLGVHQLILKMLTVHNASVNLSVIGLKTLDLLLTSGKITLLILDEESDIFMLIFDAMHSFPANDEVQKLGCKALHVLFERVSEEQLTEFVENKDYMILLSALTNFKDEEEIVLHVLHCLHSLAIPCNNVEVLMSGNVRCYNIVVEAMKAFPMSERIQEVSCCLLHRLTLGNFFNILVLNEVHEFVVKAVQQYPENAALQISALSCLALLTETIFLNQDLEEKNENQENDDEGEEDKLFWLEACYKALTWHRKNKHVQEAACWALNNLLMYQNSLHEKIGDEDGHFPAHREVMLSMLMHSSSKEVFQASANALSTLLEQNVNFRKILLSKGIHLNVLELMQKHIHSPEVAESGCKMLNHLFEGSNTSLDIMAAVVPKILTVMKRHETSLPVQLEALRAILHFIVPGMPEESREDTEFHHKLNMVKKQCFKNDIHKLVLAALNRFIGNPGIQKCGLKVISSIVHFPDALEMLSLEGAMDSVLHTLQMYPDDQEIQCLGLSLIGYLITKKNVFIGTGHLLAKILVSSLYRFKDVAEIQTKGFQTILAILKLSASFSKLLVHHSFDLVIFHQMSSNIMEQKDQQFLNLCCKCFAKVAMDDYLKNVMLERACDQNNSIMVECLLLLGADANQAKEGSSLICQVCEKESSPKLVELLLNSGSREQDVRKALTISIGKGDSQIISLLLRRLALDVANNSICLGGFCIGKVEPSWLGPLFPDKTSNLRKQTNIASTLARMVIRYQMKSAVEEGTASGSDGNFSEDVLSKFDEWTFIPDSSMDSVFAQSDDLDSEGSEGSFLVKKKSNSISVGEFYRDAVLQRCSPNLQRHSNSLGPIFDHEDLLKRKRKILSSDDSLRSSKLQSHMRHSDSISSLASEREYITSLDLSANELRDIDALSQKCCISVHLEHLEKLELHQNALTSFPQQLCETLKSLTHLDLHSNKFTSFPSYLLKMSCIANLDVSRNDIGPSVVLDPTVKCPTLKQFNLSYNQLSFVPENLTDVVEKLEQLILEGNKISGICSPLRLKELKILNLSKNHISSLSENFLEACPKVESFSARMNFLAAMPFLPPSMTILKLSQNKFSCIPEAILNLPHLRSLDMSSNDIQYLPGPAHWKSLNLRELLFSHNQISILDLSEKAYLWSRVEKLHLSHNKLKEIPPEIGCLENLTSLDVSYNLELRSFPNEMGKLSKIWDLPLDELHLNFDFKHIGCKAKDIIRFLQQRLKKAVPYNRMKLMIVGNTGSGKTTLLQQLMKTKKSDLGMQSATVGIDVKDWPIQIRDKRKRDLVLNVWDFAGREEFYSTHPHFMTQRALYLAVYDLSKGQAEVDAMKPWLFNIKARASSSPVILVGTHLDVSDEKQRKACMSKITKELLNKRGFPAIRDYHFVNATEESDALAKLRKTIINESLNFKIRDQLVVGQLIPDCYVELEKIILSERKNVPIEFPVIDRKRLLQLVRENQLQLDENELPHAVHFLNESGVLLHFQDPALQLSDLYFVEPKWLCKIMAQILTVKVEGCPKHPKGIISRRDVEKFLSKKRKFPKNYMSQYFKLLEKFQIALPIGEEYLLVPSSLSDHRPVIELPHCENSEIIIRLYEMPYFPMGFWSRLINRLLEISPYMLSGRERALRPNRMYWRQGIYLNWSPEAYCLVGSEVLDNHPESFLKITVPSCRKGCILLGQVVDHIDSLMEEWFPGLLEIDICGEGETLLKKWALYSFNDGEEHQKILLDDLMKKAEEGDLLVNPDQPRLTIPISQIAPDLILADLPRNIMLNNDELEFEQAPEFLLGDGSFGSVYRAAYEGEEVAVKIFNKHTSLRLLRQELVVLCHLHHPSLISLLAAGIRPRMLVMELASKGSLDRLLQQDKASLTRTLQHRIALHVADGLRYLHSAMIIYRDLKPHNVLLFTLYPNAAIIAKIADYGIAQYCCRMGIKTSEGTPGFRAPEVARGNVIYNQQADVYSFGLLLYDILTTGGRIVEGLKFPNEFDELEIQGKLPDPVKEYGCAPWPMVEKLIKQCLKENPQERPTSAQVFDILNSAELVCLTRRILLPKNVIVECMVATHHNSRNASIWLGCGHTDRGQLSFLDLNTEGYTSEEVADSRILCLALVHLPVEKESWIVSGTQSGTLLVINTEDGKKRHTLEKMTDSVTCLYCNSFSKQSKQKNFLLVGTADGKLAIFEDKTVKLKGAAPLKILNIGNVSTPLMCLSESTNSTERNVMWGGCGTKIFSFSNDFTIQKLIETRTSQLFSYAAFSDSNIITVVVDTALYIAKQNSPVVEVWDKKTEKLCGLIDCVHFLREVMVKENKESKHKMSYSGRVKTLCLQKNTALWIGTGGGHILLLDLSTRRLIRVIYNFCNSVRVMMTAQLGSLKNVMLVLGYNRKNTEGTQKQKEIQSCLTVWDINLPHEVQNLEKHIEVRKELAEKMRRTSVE
Assay: LRRK2 kinase activity, LanthaScreen TR-FRET assay (wild type)
Details: LRRKtide 400 nM, 25 μM ATP, 60 min; read-out: LRRK2 WT IC50
pIC50: −log10 of the molar value.
test readout: pIC50

smiles_record=Cc1c(C(=O)Nc2ccc3[nH]nc(Cl)c3c2)nc(Cl)c(C#N)c1C test_readout=pIC50 value="> 7.00"
smiles_record=N#Cc1cccc(C(=O)Nc2ccc3[nH]nc(-c4cnco4)c3c2)c1OC(F)(F)F test_readout=pIC50 value="> 7.00"
smiles_record=Cc1ccc(C#N)c(F)c1C(=O)Nc1ccc2[nH]nc(-c3cnn(C(F)F)c3)c2c1 test_readout=pIC50 value="> 7.00"
smiles_record=C=C(C)c1cc(C#N)cnc1C(=O)Nc1ccc2[nH]nc(-c3cnco3)c2c1 test_readout=pIC50 value="> 7.00"
smiles_record=N#Cc1cnc(C(=O)Nc2ccc3[nH]nc(-c4cnoc4)c3c2)c(C2CC2)c1 test_readout=pIC50 value="6.00 to 7.00"
smiles_record=Cc1c(C(=O)Nc2ccc3[nH]nc(C)c3c2)ncc(C#N)c1Cl test_readout=pIC50 value="6.00 to 7.00"
smiles_record=Cc1c(C#N)cnc(C(=O)Nc2ccc3[nH]nc(-c4cnn(C(F)F)c4)c3c2)c1C test_readout=pIC50 value="> 7.00"
smiles_record=Cc1c(C(=O)Nc2ccc3[nH]nc(C4CC4)c3c2)nc(C(F)(F)F)c(C#N)c1C test_readout=pIC50 value="> 7.00"
smiles_record=Cc1cc(C#N)cnc1C(=O)Nc1ccc2[nH]nc(-c3cnsc3)c2c1 test_readout=pIC50 value="> 7.00"
smiles_record=CCc1c(C#N)ccnc1C(=O)Nc1ccc2[nH]nc(-c3ccoc3)c2c1 test_readout=pIC50 value="6.00 to 7.00"
smiles_record=COc1c(C#N)ccnc1C(=O)Nc1ccc2[nH]nc(-c3cnoc3)c2c1 test_readout=pIC50 value="6.00 to 7.00"
smiles_record=Cc1ccc(-c2n[nH]c3ccc(NC(=O)c4ncc(C#N)cc4C)cc23)cc1 test_readout=pIC50 value="6.00 to 7.00"
smiles_record=Cc1c(C#N)cnc(C(=O)Nc2ccc3[nH]nc(C=C4CCOCC4)c3c2)c1C test_readout=pIC50 value="5.00 to 6.00"
smiles_record=Cc1ccccc1-c1n[nH]c2ccc(NC(=O)c3ncc(C#N)cc3C)cc12 test_readout=pIC50 value="< 5.00"
smiles_record=Cc1c(C#N)cnc(C(=O)Nc2ccc3[nH]nc(/C=C/c4ccccn4)c3c2)c1C test_readout=pIC50 value="> 7.00"
